assay: Nitrite content (ion chromatography; LC-FLD with DAN derivatisation; Griess test) in drug substance, intermediates, reagents, solvents, filters, excipients; assay type: physicochemical; details: ribociclib succinate drug substance batches at release; manufacturer Raybow - DS05
attribute measured: Nitrite NAT enhanced sample prep. (ppm)

CN(C)C(=O)c1cc2cnc(Nc3ccc(N4CCNCC4)cn3)nc2n1C1CCCC1.O=C(O)CCC(=O)O [RIBOCICLIB SUCCINATE 833268A201] : 0.1
CN(C)C(=O)c1cc2cnc(Nc3ccc(N4CCNCC4)cn3)nc2n1C1CCCC1.O=C(O)CCC(=O)O [RIBOCICLIB SUCCINATE 833268A202] : 0.1

----------
assay: Nitrite content (ion chromatography; LC-FLD with DAN derivatisation; Griess test) in drug substance, intermediates, reagents, solvents, filters, excipients; assay type: physicochemical; conditions: ribociclib succinate drug substance batches at release
attribute measured: Nitrite NAP method (ppm)

Examples with answers:
CN(C)C(=O)c1cc2cnc(Nc3ccc(N4CCNCC4)cn3)nc2n1C1CCCC1.O=C(O)CCC(=O)O [Batch B711866] : 0.2
CN(C)C(=O)c1cc2cnc(Nc3ccc(N4CCNCC4)cn3)nc2n1C1CCCC1.O=C(O)CCC(=O)O [Batch B711867] : 0.1
CN(C)C(=O)c1cc2cnc(Nc3ccc(N4CCNCC4)cn3)nc2n1C1CCCC1.O=C(O)CCC(=O)O [Batch B709940] : 0.2

[A] CN(C)C(=O)c1cc2cnc(Nc3ccc(N4CCNCC4)cn3)nc2n1C1CCCC1.O=C(O)CCC(=O)O [Batch B709938]
[B] CN(C)C(=O)c1cc2cnc(Nc3ccc(N4CCNCC4)cn3)nc2n1C1CCCC1.O=C(O)CCC(=O)O [Batch B698293]
[C] CN(C)C(=O)c1cc2cnc(Nc3ccc(N4CCNCC4)cn3)nc2n1C1CCCC1.O=C(O)CCC(=O)O [Batch B710669]
[D] CN(C)C(=O)c1cc2cnc(Nc3ccc(N4CCNCC4)cn3)nc2n1C1CCCC1.O=C(O)CCC(=O)O [Batch B710666]
Ordering: ascending Nitrite NAP method (ppm). Use the labels to give the ranking in the order requested.
C, A, B, D

[a] CN(C)C(=O)c1cc2cnc(Nc3ccc(N4CCNCC4)cn3)nc2n1C1CCCC1.O=C(O)CCC(=O)O [Batch B696587]
[b] CN(C)C(=O)c1cc2cnc(Nc3ccc(N4CCNCC4)cn3)nc2n1C1CCCC1.O=C(O)CCC(=O)O [Batch B711440]
Could you tell me which of a and b has the lower Nitrite NAP method (ppm) reading? Mark your selection by writing its label.
b

[A] CN(C)C(=O)c1cc2cnc(Nc3ccc(N4CCNCC4)cn3)nc2n1C1CCCC1.O=C(O)CCC(=O)O [Batch B707657]
[B] CN(C)C(=O)c1cc2cnc(Nc3ccc(N4CCNCC4)cn3)nc2n1C1CCCC1.O=C(O)CCC(=O)O [Batch B699003]
Could you tell me which of A and B has the lower Nitrite NAP method (ppm) reading? Mark your selection by writing its label.
B

[1] CN(C)C(=O)c1cc2cnc(Nc3ccc(N4CCNCC4)cn3)nc2n1C1CCCC1.O=C(O)CCC(=O)O [Batch B698298]
[2] CN(C)C(=O)c1cc2cnc(Nc3ccc(N4CCNCC4)cn3)nc2n1C1CCCC1.O=C(O)CCC(=O)O [Batch B711439]
Sort 1 and 2 by Nitrite NAP method (ppm) descending and give the first. Mark your selection by writing its label.
1
